B1: PDS5B (parent)
chain: ITYPPGVKEISDKISKEEMVRRLK

# Variants of: B1
# protocol-summary: protein stability index of a GFP-peptide fusion (GPS, HEK-293T) (PSI 1-6); higher = more stable;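 further: lentivirally expressed fusions sorted by FACS into six bins by GFP to DsRed ratio, PSI derived from sequencing read proportions per bin multiplied by bin number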
# experimental-conditions: c terminus: a fixed tail appended
Recorded measurements of protein stability index, one per entry
readout: protein stability index

- mutation-annotation: "S11R"
  reported: 3.4
- mutation-annotation: "K13V"
  reported: 3.51
- mutation-annotation: "S15Y"
  reported: 3.46
- mutation-annotation: "E9L"
  reported: 2.09
- mutation-annotation: "I1Y"
  reported: 3.78
- mutation-annotation: "L23R"
  reported: 4.59
- mutation-annotation: "K16C"
  reported: 3.87
- mutation-annotation: "V20S"
  reported: 4.83
- mutation-annotation: "L23K"
  reported: 4.85
- mutation-annotation: "S11Q"
  reported: 4.16
- mutation-annotation: "T2P"
  reported: 3.47
- mutation-annotation: "G6F"
  reported: 3.31
- mutation-annotation: "E9M"
  reported: 3.51
- mutation-annotation: "V20C"
  reported: 3.74
- mutation-annotation: "T2Y"
  reported: 3.37
- mutation-annotation: "I10Y"
  reported: 4.44
- mutation-annotation: "L23G"
  reported: 4.84
- mutation-annotation: "K8N"
  reported: 3.83
- mutation-annotation: "V20N"
  reported: 4.4
- mutation-annotation: "S11H"
  reported: 4.04
- mutation-annotation: "I10P"
  reported: 4.27
- mutation-annotation: "E9Q"
  reported: 3.35
- mutation-annotation: "I1M"
  reported: 4.9
- mutation-annotation: "I10L"
  reported: 4.33
- mutation-annotation: "S11V"
  reported: 2.8
- mutation-annotation: "K24Y"
  reported: 2.67
- mutation-annotation: "Y3I"
  reported: 3.97
- mutation-annotation: "K8E"
  reported: 3.78
- mutation-annotation: "V20K"
  reported: 4.17
- mutation-annotation: "P4K"
  reported: 3.61
- mutation-annotation: "I14V"
  reported: 4.02
- mutation-annotation: "K24D"
  reported: 4.78
- mutation-annotation: "K24R"
  reported: 4.2
- mutation-annotation: "I1G"
  reported: 3.81
- mutation-annotation: "E17W"
  reported: 2.75
- mutation-annotation: "I10H"
  reported: 3.62
- mutation-annotation: "K16A"
  reported: 3.92
- mutation-annotation: "I1V"
  reported: 4.62
- mutation-annotation: "P4M"
  reported: 3
- mutation-annotation: "R21W"
  reported: 4.52
- mutation-annotation: "P5W"
  reported: 3.15
- mutation-annotation: "V20H"
  reported: 4.19
- mutation-annotation: "M19P"
  reported: 4.64
- mutation-annotation: "I14W"
  reported: 3.03
- mutation-annotation: "R22H"
  reported: 3.88
- mutation-annotation: "R21D"
  reported: 4.46
